Sourced from the supplement of paper PMC9170038

Tested on: MS2 coat protein
Assay: apparent KD of MS2 coat protein; designed switch direction (-1 OFF switch, 1 ON switch): -1; higher = weaker reporter binding
Conditions: input ligand: FMN 200 uM
READOUT LABEL: apparent KD of MS2 coat protein (nM)
Report the figure in nM without appending any unit label.

Examples with their reported apparent KD of MS2 coat protein follow.
| SEQUENCE TEXT | SYSTEM | UNIT SYMBOL | apparent KD of MS2 coat protein |
| --- | --- | --- | --- |
| CACACACAUGAGGAUCACCCAUGUCAGGAUAUCGACACACACCCACACAAACAAACCACGAGAAGGGACGGCCA [E4 1] (Eterna round: R97, puzzle: Exclusion 1) | MS2 coat protein | nM | 37 |
| ACGCUGUGAGGAUAUACAUGAGGAUCACCCAUGUUAAGGAAGUCUUGGUUAAUUUGGAGUAGAAGGCGCUUAUU [JR_Ex3_Sub016] (Eterna round: R97, puzzle: Exclusion 3) | MS2 coat protein | nM | 31.5 |
| UUUAAGUAAGGAUAUGCGAGCCACGGAAAUAAAACGUGGAGGUAGAAGGUACAUGAGGAUCACCCAUGUAAAAC [Mod of Anonveat 23 - Jieux - Exclusion 4] (Eterna round: R97, puzzle: Exclusion 4) | MS2 coat protein | nM | 21.8 |
| AAUAAUCAUGUAGGAUAUGCGUGGCAAAGCUAUGCAGAAGGACAUGAGGAUCACCCAUGUUCUAGCGUCUGAAAACAGAUGCUA [Mat - Exclusion NG 1 - Mod of JL - D83] (Eterna round: R96, puzzle: Exclusion NG 1) | MS2 coat protein | nM | 451 |

Lookup: apparent KD of MS2 coat protein / MS2 coat protein / GCCGAAAGUGUGAGGAUAUACCUAUGGAAACAUAGGUAGAAGGCACAUGAGGAUCACCCAUGUGUCCAAACGGC [Mat - Exclusion 4 - Eli Mod - D23] (Eterna round: R97, puzzle: Brourd's mod of Exclusion 4)
41.5

What about this sequence? UGAGUGCUGCGAGGAUAUACAUGAGGAUCACCCAUGUUUUCGUGUGAGGCUUUGCCUCACACGAUGUAGAAGGCGCAGUACUCU [JL ENG2 1.13] (Eterna round: R96, puzzle: Exclusion NG 2)
11.5

Try this sequence too: AACUCAUGUUCAGGAUAUCGCGUUCCAAAGACAUGAGAAGGGAACAUGAGGAUCACCCAUGUGCCCGGUCUCAGACCGGGCUUC [Legebi] (Eterna round: R96, puzzle: Exclusion NG 1)
272

Next record, please: CGCUGGGCAGGAUAUGUUCUUGAGCACUUGAGGAUCACCCAAGUCAUCAAGAACUCAGGCACAGAAGGGUUUAUGG [salish99_ex5_r4_017] (Eterna round: R97, puzzle: Exclusion 5)
10.5

Follow-up item: GCUGGUCGAGGAUAUACAUGAGGAUCACCCAUGUAGAUCAACCAGCGAUAGCUGGAAUGUAGAAGGCGACCAGC [E3/5-A1] (Eterna round: R97, puzzle: Exclusion 3)
125
